# TARGET_OR_SYSTEM: BRK (Homo sapiens)
# Construct: lines 1-140) and Reaction Biology
# Sequence (Q13882 whole entry): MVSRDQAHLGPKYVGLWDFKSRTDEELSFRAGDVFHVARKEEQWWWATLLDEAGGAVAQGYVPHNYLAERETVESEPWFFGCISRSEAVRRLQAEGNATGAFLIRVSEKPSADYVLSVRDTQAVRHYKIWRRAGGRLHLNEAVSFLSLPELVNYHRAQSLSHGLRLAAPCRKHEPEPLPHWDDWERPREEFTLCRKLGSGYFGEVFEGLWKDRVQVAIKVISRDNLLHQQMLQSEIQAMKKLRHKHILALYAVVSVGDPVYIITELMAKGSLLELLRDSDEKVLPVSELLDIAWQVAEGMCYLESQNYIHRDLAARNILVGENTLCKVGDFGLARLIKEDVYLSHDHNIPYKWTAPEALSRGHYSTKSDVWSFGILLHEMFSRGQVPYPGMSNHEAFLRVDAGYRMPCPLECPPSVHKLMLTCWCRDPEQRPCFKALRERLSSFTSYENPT
# TEST_METHOD_NOTES: Dundee kinase panel
# Format: biochemical
# STATED_CONDITIONS: read-out: residual activity
# Experimental: Compounds were screened at 1 μM. For key hits, pIC50 values were then determined by HTRF as above. […] Stability in mouse and human liver microsomes was determined by Cyprotex.
EXPERIMENTAL_ENDPOINT: remaining activity at 1 µM (%)
Report as a plain number; the unit % is understood.

Answered examples (3):
Oc1ncnc2c1c(-c1ccccc1)cn2-c1ccccc1: 108
COCCOc1ccc(-c2cn(-c3ccccc3)c3nc[nH]c(=O)c23)cc1: 88
O=C1Cc2c([nH]c3ccc(Br)cc23)-c2ccccc2N1: 97

IN: Give BRK (Homo sapiens) remaining activity at 1 µM for "O=C1Nc2ccc(I)cc2/C1=C/c1cc(Br)c(O)c(Br)c1"
OUT: 77
